The measured values listed here are drawn from patent US6699849B1.

Fraction open overview
Experiment: Effect of pH and cyclodextrins on the fraction of the open form (diazepine ring-opening) of benzodiazepines
Assay type: physicochemical
Settings: 10% (w/v) αCD, pH 4, approx. 23° C.
readout: Fraction open

[[record]]
smiles_record = "Cc1nnc2n1-c1ccc(Cl)cc1C(c1ccccc1)=NC2"
readout = "Fraction open"
reported_value = 0.25

[[record]]
smiles_record = "Cc1ncc2n1-c1ccc(Cl)cc1C(c1ccccc1F)=NC2"
readout = "Fraction open"
reported_value = 0.10

[[record]]
smiles_record = "CN1C(=O)CN=C(c2ccccc2)c2cc(Cl)ccc21"
readout = "Fraction open"
reported_value = 0.13

[[record]]
smiles_record = "Cc1nnc2n1-c1ccc(Cl)cc1C(c1ccccc1Cl)=NC2"
readout = "Fraction open"
reported_value = 0.00


====

Assay: Effect of pH and cyclodextrins on the fraction of the open form (diazepine ring-opening) of benzodiazepines
Format: physicochemical
Conditions: 10% (w/v) αCD, pH 3, approx. 23° C.
Fraction open overview
readout: Fraction open

[[record]]
smiles_record = "CN1C(=O)CN=C(c2ccccc2)c2cc(Cl)ccc21"
readout = "Fraction open"
reported_value = 0.51

[[record]]
smiles_record = "Cc1nnc2n1-c1ccc(Cl)cc1C(c1ccccc1Cl)=NC2"
readout = "Fraction open"
reported_value = 0.23

[[record]]
smiles_record = "Cc1nnc2n1-c1ccc(Cl)cc1C(c1ccccc1)=NC2"
readout = "Fraction open"
reported_value = 0.79

[[record]]
smiles_record = "Cc1ncc2n1-c1ccc(Cl)cc1C(c1ccccc1F)=NC2"
readout = "Fraction open"
reported_value = 0.32


====

Assay: Effect of pH and cyclodextrins on the fraction of the open form (diazepine ring-opening) of benzodiazepines
Type: physicochemical
Conditions: 10% (w/v) αCD, pH 2, approx. 23° C.
readout: Fraction open

[[record]]
smiles_record = "Cc1ncc2n1-c1ccc(Cl)cc1C(c1ccccc1F)=NC2"
reported_value = 0.79

[[record]]
smiles_record = "Cc1nnc2n1-c1ccc(Cl)cc1C(c1ccccc1Cl)=NC2"
reported_value = 0.75

[[record]]
smiles_record = "CN1C(=O)CN=C(c2ccccc2)c2cc(Cl)ccc21"
reported_value = 0.67

[[record]]
smiles_record = "Cc1nnc2n1-c1ccc(Cl)cc1C(c1ccccc1)=NC2"
reported_value = 0.94


====

Fraction open overview
Test: Effect of pH and cyclodextrins on the fraction of the open form (diazepine ring-opening) of benzodiazepines
Assay type: physicochemical
Details: 10% (w/v) HPβCD, pH 2, approx. 23° C.
readout: Fraction open

[[record]]
smiles_record = "Cc1ncc2n1-c1ccc(Cl)cc1C(c1ccccc1F)=NC2"
readout = "Fraction open"
reported_value = 0.56

[[record]]
smiles_record = "Cc1nnc2n1-c1ccc(Cl)cc1C(c1ccccc1)=NC2"
readout = "Fraction open"
reported_value = 0.89

[[record]]
smiles_record = "Cc1nnc2n1-c1ccc(Cl)cc1C(c1ccccc1Cl)=NC2"
readout = "Fraction open"
reported_value = 0.51

[[record]]
smiles_record = "CN1C(=O)CN=C(c2ccccc2)c2cc(Cl)ccc21"
readout = "Fraction open"
reported_value = 0.65


====

Assay: Effect of pH and cyclodextrins on the fraction of the open form (diazepine ring-opening) of benzodiazepines
Assay type: physicochemical
Conditions: 10% (w/v) γCD, pH 4, approx. 23° C.
readout: Fraction open

[[record]]
smiles_record = "Cc1nnc2n1-c1ccc(Cl)cc1C(c1ccccc1Cl)=NC2"
reported_value = 0.00

[[record]]
smiles_record = "Cc1ncc2n1-c1ccc(Cl)cc1C(c1ccccc1F)=NC2"
reported_value = 0.17

[[record]]
smiles_record = "Cc1nnc2n1-c1ccc(Cl)cc1C(c1ccccc1)=NC2"
reported_value = 0.42

[[record]]
smiles_record = "CN1C(=O)CN=C(c2ccccc2)c2cc(Cl)ccc21"
reported_value = 0.13


====

Test: Effect of pH and cyclodextrins on the fraction of the open form (diazepine ring-opening) of benzodiazepines
Format: physicochemical
Settings: no cyclodextrin, pH 4, approx. 23° C.
Fraction open overview
readout: Fraction open

[[record]]
smiles_record = "Cc1nnc2n1-c1ccc(Cl)cc1C(c1ccccc1)=NC2"
readout = "Fraction open"
reported_value = 0.33

[[record]]
smiles_record = "Cc1nnc2n1-c1ccc(Cl)cc1C(c1ccccc1Cl)=NC2"
readout = "Fraction open"
reported_value = 0.00

[[record]]
smiles_record = "Cc1ncc2n1-c1ccc(Cl)cc1C(c1ccccc1F)=NC2"
readout = "Fraction open"
reported_value = 0.18

[[record]]
smiles_record = "CN1C(=O)CN=C(c2ccccc2)c2cc(Cl)ccc21"
readout = "Fraction open"
reported_value = 0.15


====

Experiment: Effect of pH and cyclodextrins on the fraction of the open form (diazepine ring-opening) of benzodiazepines
Format: physicochemical
Details: 10% (w/v) γCD, pH 3, approx. 23° C.
readout: Fraction open

[[record]]
smiles_record = "Cc1nnc2n1-c1ccc(Cl)cc1C(c1ccccc1)=NC2"
readout = "Fraction open"
reported_value = 0.41

[[record]]
smiles_record = "Cc1ncc2n1-c1ccc(Cl)cc1C(c1ccccc1F)=NC2"
readout = "Fraction open"
reported_value = 0.21

[[record]]
smiles_record = "Cc1nnc2n1-c1ccc(Cl)cc1C(c1ccccc1Cl)=NC2"
readout = "Fraction open"
reported_value = 0.01

[[record]]
smiles_record = "CN1C(=O)CN=C(c2ccccc2)c2cc(Cl)ccc21"
readout = "Fraction open"
reported_value = 0.17


====

Assay: Effect of pH and cyclodextrins on the fraction of the open form (diazepine ring-opening) of benzodiazepines
Format: physicochemical
Details: 10% (w/v) SBEβCD, pH 2, approx. 23° C.
readout: Fraction open

[[record]]
smiles_record = "Cc1ncc2n1-c1ccc(Cl)cc1C(c1ccccc1F)=NC2"
readout = "Fraction open"
reported_value = 0.81

[[record]]
smiles_record = "Cc1nnc2n1-c1ccc(Cl)cc1C(c1ccccc1)=NC2"
readout = "Fraction open"
reported_value = 0.96

[[record]]
smiles_record = "Cc1nnc2n1-c1ccc(Cl)cc1C(c1ccccc1Cl)=NC2"
readout = "Fraction open"
reported_value = 0.71

[[record]]
smiles_record = "CN1C(=O)CN=C(c2ccccc2)c2cc(Cl)ccc21"
readout = "Fraction open"
reported_value = 0.63


====

Test: Effect of pH and cyclodextrins on the fraction of the open form (diazepine ring-opening) of benzodiazepines
Format: physicochemical
Details: 10% (w/v) HPβCD, pH 3, approx. 23° C.
readout: Fraction open

[[record]]
smiles_record = "Cc1nnc2n1-c1ccc(Cl)cc1C(c1ccccc1)=NC2"
reported_value = 0.60

[[record]]
smiles_record = "CN1C(=O)CN=C(c2ccccc2)c2cc(Cl)ccc21"
reported_value = 0.29

[[record]]
smiles_record = "Cc1nnc2n1-c1ccc(Cl)cc1C(c1ccccc1Cl)=NC2"
reported_value = 0.09

[[record]]
smiles_record = "Cc1ncc2n1-c1ccc(Cl)cc1C(c1ccccc1F)=NC2"
reported_value = 0.18


====

Fraction open overview
Assay: Effect of pH and cyclodextrins on the fraction of the open form (diazepine ring-opening) of benzodiazepines
Type: physicochemical
Settings: 10% (w/v) HPβCD, pH 4, approx. 23° C.
readout: Fraction open

[[record]]
smiles_record = "Cc1nnc2n1-c1ccc(Cl)cc1C(c1ccccc1Cl)=NC2"
readout = "Fraction open"
reported_value = 0.00

[[record]]
smiles_record = "Cc1ncc2n1-c1ccc(Cl)cc1C(c1ccccc1F)=NC2"
readout = "Fraction open"
reported_value = 0.23

[[record]]
smiles_record = "CN1C(=O)CN=C(c2ccccc2)c2cc(Cl)ccc21"
readout = "Fraction open"
reported_value = 0.15

[[record]]
smiles_record = "Cc1nnc2n1-c1ccc(Cl)cc1C(c1ccccc1)=NC2"
readout = "Fraction open"
reported_value = 0.23


====

Test: Effect of pH and cyclodextrins on the fraction of the open form (diazepine ring-opening) of benzodiazepines
Format: physicochemical
Conditions: 10% (w/v) γCD, pH 2, approx. 23° C.
Fraction open overview
readout: Fraction open

[[record]]
smiles_record = "Cc1nnc2n1-c1ccc(Cl)cc1C(c1ccccc1)=NC2"
readout = "Fraction open"
reported_value = 0.81

[[record]]
smiles_record = "Cc1nnc2n1-c1ccc(Cl)cc1C(c1ccccc1Cl)=NC2"
readout = "Fraction open"
reported_value = 0.33

[[record]]
smiles_record = "Cc1ncc2n1-c1ccc(Cl)cc1C(c1ccccc1F)=NC2"
readout = "Fraction open"
reported_value = 0.61

[[record]]
smiles_record = "CN1C(=O)CN=C(c2ccccc2)c2cc(Cl)ccc21"
readout = "Fraction open"
reported_value = 0.41


====

Assay: Effect of pH and cyclodextrins on the fraction of the open form (diazepine ring-opening) of benzodiazepines
Format: physicochemical
Settings: no cyclodextrin, pH 3, approx. 23° C.
readout: Fraction open

[[record]]
smiles_record = "Cc1nnc2n1-c1ccc(Cl)cc1C(c1ccccc1Cl)=NC2"
readout = "Fraction open"
reported_value = 0.08

[[record]]
smiles_record = "Cc1ncc2n1-c1ccc(Cl)cc1C(c1ccccc1F)=NC2"
readout = "Fraction open"
reported_value = 0.28

[[record]]
smiles_record = "CN1C(=O)CN=C(c2ccccc2)c2cc(Cl)ccc21"
readout = "Fraction open"
reported_value = 0.23

[[record]]
smiles_record = "Cc1nnc2n1-c1ccc(Cl)cc1C(c1ccccc1)=NC2"
readout = "Fraction open"
reported_value = 0.56

